Target: Human CD137 ECD (human)
Sequence (chain, as listed by the source limits assumed): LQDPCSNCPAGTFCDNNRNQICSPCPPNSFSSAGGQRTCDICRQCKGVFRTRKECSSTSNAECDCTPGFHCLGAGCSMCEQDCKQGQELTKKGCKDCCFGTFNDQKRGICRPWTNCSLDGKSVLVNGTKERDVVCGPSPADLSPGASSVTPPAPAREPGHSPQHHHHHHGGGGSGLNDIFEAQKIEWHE
Experiment: SPR, vs parent H183/L072
quantity: fold change of affinity (fold)
Give the value, in units of fold, as a plain number.

# input // lookup fold change of affinity for dBBDu183H V95E / dBBDu072L (antibody, name in Kabat numbering, V domains shown) VH: QVQLVESGGGLVQPGRSLRLSCAASGFTFSNAWMHWVRQAPGKGLEWVAQIKDKGNAYAAYYAPSVKGRFTISRDDSKNSIYLQMNSLKTEDTAVYYCHYEHYASASTVLPAFGVDAWGQGTTVTVSS VL: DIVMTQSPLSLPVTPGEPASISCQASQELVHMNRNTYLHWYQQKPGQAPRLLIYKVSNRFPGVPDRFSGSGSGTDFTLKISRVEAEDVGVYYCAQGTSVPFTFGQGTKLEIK
# output 0

# input // lookup fold change of affinity for dBBDu183H G100hR / dBBDu072L (antibody, name in Kabat numbering, V domains shown) VH: QVQLVESGGGLVQPGRSLRLSCAASGFTFSNAWMHWVRQAPGKGLEWVAQIKDKGNAYAAYYAPSVKGRFTISRDDSKNSIYLQMNSLKTEDTAVYYCHYVHYASASTVLPAFRVDAWGQGTTVTVSS VL: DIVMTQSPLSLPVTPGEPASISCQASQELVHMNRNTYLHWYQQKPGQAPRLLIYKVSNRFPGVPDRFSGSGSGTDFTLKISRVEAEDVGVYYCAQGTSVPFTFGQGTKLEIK
# output 0

# input // lookup fold change of affinity for dBBDu183H A98Q / dBBDu072L (antibody, name in Kabat numbering, V domains shown) VH: QVQLVESGGGLVQPGRSLRLSCAASGFTFSNAWMHWVRQAPGKGLEWVAQIKDKGNAYAAYYAPSVKGRFTISRDDSKNSIYLQMNSLKTEDTAVYYCHYVHYQSASTVLPAFGVDAWGQGTTVTVSS VL: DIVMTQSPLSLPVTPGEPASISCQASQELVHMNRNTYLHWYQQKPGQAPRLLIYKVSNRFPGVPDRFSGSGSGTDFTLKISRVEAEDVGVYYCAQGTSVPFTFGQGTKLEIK
# output 0
